- experimentalTarget: T1, human CD3 on T-cell lines (CD3-expressing Jurkat cells; HUT78 cells) (human, UniProt P07766 23-207)
- T1 construct: On cells it stands in the CD3/TCR complex
- T1 sequence (P07766 23-207 limits assumed): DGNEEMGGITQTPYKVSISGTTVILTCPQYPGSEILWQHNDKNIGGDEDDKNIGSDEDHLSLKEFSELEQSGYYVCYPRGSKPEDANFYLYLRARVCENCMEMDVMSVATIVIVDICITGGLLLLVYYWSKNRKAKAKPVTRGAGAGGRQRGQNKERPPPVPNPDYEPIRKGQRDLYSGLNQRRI
- testDescription: flow cytometry, HUT78 cells
Binary call on Kd with cut-off 7 nM: strictly below means 1, and equality or higher means 0.

Prompt line: Does the reported Kd of 2037-B10_Hc-F104D (antibody, human IgG1, lambda, V domains shown, human IgG1, lambda; also called SRP 2037 F104D; 2037-B10_VH-F104D) VH: EVQLVESGGGLVKPGGSLRLSCAASGFTFNKYAMNWVRQAPGKGLEWVARIRTKYNNYATYYADSVKDRFTISRDDSKNTAYLQMNSLKTEDTAVYYCVRHGNDGNSYISYWAYWGQGTPVTVSS VL: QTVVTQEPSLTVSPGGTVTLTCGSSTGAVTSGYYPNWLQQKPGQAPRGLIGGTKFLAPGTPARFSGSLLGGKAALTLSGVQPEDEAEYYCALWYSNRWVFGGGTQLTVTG stay below 7 nM?
Response line: 1

Prompt line: Does the reported Kd of 2037-B10_Hc-R50D (antibody, human IgG1, lambda, V domains shown, human IgG1, lambda; also called SRP 2037 R50D; 2037-B10_VH-R50D) VH: EVQLVESGGGLVKPGGSLRLSCAASGFTFNKYAMNWVRQAPGKGLEWVADIRTKYNNYATYYADSVKDRFTISRDDSKNTAYLQMNSLKTEDTAVYYCVRHGNFGNSYISYWAYWGQGTPVTVSS VL: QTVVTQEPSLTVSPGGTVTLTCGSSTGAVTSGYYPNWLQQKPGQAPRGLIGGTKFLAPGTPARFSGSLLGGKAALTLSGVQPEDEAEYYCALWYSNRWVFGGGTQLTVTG stay below 7 nM?
Response line: 1

Prompt line: Does the reported Kd of 2037-B10_Hc-K54D (antibody, human IgG1, lambda, V domains shown, human IgG1, lambda; also called SRP 2037 K54D; 2037-B10_VH-K54D) VH: EVQLVESGGGLVKPGGSLRLSCAASGFTFNKYAMNWVRQAPGKGLEWVARIRTDYNNYATYYADSVKDRFTISRDDSKNTAYLQMNSLKTEDTAVYYCVRHGNFGNSYISYWAYWGQGTPVTVSS VL: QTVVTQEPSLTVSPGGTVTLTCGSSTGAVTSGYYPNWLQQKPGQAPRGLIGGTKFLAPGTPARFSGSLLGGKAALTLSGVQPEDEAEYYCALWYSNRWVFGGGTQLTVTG stay below 7 nM?
Response line: 1

Prompt line: Does the reported Kd of 2037-B10_Hc-N103D (antibody, human IgG1, lambda, V domains shown, human IgG1, lambda; also called SRP 2037 N103D; 2037-B10_VH-N103D) VH: EVQLVESGGGLVKPGGSLRLSCAASGFTFNKYAMNWVRQAPGKGLEWVARIRTKYNNYATYYADSVKDRFTISRDDSKNTAYLQMNSLKTEDTAVYYCVRHGDFGNSYISYWAYWGQGTPVTVSS VL: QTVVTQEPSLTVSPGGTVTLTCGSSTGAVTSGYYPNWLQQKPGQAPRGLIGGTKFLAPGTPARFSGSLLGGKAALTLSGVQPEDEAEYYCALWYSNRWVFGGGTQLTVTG stay below 7 nM?
Response line: 0

Prompt line: Does the reported Kd of 2037-B10_Hc-A33D (antibody, human IgG1, V domains shown, human IgG1, lambda; also called SRP 2037 A33D; 2037-B10_VH-A33D) VH: EVQLVESGGGLVKPGGSLRLSCAASGFTFNKYDMNWVRQAPGKGLEWVARIRTKYNNYATYYADSVKDRFTISRDDSKNTAYLQMNSLKTEDTAVYYCVRHGNFGNSYISYWAYWGQGTPVTVSS VL: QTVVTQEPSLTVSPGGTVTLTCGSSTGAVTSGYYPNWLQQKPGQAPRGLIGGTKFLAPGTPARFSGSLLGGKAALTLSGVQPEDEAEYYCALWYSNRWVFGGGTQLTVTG stay below 7 nM?
Response line: 0

Measured values drawn from patent US20240124585A1 for this set.
